Overview of recorded melting point for various molecules

Consider the worked cases shown below.
Cc1ccnc2c1C(=NNC(=N)N)CC(c1sccc1Cl)C2.Cl (stereo not drawn) [Compound 74] ... 203 °C (dec.)
Cc1cn(S(C)(=O)=O)c2c1C(=NNC(=N)N)CC(c1cccs1)C2.Cl (stereo not drawn) ... 297 °C (dec.)
CCOC(=O)c1coc2c1/C(=N/NC(=N)N)CC(c1ccccc1Cl)C2.Cl (stereo not drawn) ... 277 °C (dec.)
Cc1ccnc2c1C(=NNC(=N)N)CC(c1ccncc1)C2.Cl (stereo not drawn) ... 267 °C (dec.)
Cc1nn(CCc2ccccc2)c2c1C(=NNC(=N)N)CC(c1ccccc1Cl)C2.Cl (stereo not drawn) ... 152 to 154 °C

# input What value of melting point has been reported for the following molecule? Cc1ccnc2c1C(=NNC(=N)N)CC(c1cccc(Cl)c1Cl)C2.Cl (stereo not drawn)
# output 270 to 272 °C

// data source = patent US6350749B1
